Molecular target: T1, Avi/His-HuIL18BPa (recombinant human IL-18BP isoform A with Avi and poly-His tags) (human, biotinylated with BirA on the Avi tag in some assays)
T1 construct: also called human IL-18BP-Avi-His
T1 chain: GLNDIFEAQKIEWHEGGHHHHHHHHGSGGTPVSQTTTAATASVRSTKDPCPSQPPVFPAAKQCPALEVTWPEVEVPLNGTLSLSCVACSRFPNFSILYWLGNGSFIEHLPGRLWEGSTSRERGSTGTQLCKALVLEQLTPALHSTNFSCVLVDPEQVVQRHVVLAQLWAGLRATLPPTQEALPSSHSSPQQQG
Assay: SPR Carterra LSA, IgG immobilized
pKd: −log10 of the molar value.

binder	pKd
anti-IL18BP antibody BP-15 (antibody, human IgG1, V domains shown) VH: QVQLVQSGAEVKKPGASVKVSCKASGYTFTTYDINWVRQAPGQGLEWMGIINPSGGSTSYAQKFQGRVTMTRDTSTSTVYMELSSLRSEDTAVYYCATGIGELDFDYWGQGTLVTVSS VL: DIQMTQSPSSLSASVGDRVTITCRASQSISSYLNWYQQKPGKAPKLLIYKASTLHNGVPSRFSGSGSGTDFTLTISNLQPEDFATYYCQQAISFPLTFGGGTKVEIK	7.73
anti-IL18BP antibody BP-14 (antibody, human IgG1, V domains shown) VH: QVQLVQSGAEVKKPGASVKVSCKASGYTFTGYYMHWVRQAPGQGLEWMGIINPRGGSTSHAQKFQGRVTMTRDTSTSTVYMELSSLRSEDTAVYYCARGLELHWFDPWGQGTLVTVSS VL: DIQMTQSPSSLSASVGDRVTITCRASQNIRSWLAWYQQKPGKAPKLLIYAASSLQSGVPSRFSGSGSGTDFTLTISSLQPEDFATYYCQQANSFPYTFGQGTKLEIK	8.49
anti-IL18BP antibody BP-10 (antibody, human IgG1, V domains shown) VH: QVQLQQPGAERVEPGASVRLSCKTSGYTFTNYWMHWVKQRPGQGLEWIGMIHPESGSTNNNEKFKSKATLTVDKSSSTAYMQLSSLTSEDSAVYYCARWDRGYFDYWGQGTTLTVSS VL: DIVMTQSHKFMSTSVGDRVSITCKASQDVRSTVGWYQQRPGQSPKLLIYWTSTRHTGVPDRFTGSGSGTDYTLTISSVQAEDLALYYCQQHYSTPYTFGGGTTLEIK	9.00
anti-IL18BP antibody BP-13 (antibody, human IgG1, V domains shown) VH: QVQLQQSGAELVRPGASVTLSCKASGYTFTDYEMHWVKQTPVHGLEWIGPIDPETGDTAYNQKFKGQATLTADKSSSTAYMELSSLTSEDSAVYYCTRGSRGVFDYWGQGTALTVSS VL: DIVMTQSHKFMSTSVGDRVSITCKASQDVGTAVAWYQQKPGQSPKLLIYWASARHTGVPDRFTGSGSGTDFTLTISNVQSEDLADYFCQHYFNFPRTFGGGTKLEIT	8.14
anti-IL18BP antibody BP-03 (antibody, human IgG1, V domains shown) VH: EVQLQQSGPELVKPGASVKIPCKASGYTFTDYNMDWVKQSHGKSLEWIGNINTDNGGTVYNQKFKGKATLTVDQSSSTAYMELRSLTSEDTAVYYCARSDTTVVASRYYAMDYWGQGTSVTVSS VL: DIVLTQSPASLAMSLGKRATISCRASESVSIIGTNLIHWYQQKPGQPPKLLIYHASNLETGVPARFSGSGSRTDFTLTIDPVEEDDVAIYYCLQSRKIPPTFGGGTKLEIK	8.39
anti-IL18BP antibody BP-08 (antibody, human IgG1, V domains shown) VH: QVQLQQPGAELVKPGASVKLSCKVSGYTFTSYWMHWVKQRPGQGLEWIGMIDPNSDSSRYNEKFKNRATLTADKSSSTAFMQFSSLTSEDSAVYYCARSRLGQDYWGQGTTLTVSS VL: DIVMTQSHKFMSTSVGDRVSITCKASQDVSTAVAWYQQKPGQSPKLLIYWASTRHTGVPDRFTGSESGTDYTLIISSVQAEDLALYYCQQHFSTPYTFGGGTKLEIK	8.16
anti-IL18BP antibody BP-04 (antibody, V domains shown, also called BP-04 (hybridoma); BP-04 (parental)) VH: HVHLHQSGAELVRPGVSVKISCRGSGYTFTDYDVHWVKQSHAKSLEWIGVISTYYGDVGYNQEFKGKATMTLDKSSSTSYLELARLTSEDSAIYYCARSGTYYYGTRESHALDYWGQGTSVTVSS VL: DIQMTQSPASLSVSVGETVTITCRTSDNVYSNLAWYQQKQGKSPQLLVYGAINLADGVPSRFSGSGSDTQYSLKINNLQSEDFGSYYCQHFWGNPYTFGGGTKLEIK	9.10
anti-IL18BP antibody BP-12 (antibody, human IgG1, V domains shown) VH: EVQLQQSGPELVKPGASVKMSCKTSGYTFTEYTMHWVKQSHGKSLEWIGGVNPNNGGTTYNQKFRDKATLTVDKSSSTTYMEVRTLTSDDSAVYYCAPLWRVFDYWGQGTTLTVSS VL: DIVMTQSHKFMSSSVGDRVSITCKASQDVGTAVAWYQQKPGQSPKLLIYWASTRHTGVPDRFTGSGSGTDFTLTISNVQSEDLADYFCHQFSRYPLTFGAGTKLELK	8.12
anti-IL18BP antibody BP-07 (antibody, human IgG1, V domains shown) VH: EVQLQQSGPELVKPGASVKISCRASGFTITDYNMDWVRQSHGKSLEWIGNINLNNGGSIYNQKFKGKATLTIDKSSSTAYMELRSLTSEDTAVYYCARSDTTVVASRYYAMDYWGQGTSVTVSS VL: DIVLTQSPASLAMSLGKRATISCRASESVSIIGTNLIHWYQQKPGQPPKLLIYHASNLETGVPVRFSGSGSRTDFTLTIDPVEEDDVAIYYCLQSRKIPPTFGGGTKLEIK	8.57
anti-IL18BP antibody BP-09 (antibody, human IgG1, V domains shown) VH: QVQLQQSGAELVRPGASVTLSCKASGYRFTDYAMHWVKQTPVHGLQWIGIIDPETGDTAFNQKFKGKATLTADKSSSTAYMELSSLTSEDSAVYYCTRPRGAMDYWGQGTSVTVSS VL: DIVMTQSHKFMSTSGGDRVSITCKASQDVGTAVAWYQQKPGISPKLLIYWASTRHTGVPDRFTGSGSGTDFTLAISNVQSEDLADYFCQQYSSHPYTFGGGTKLEIK	8.70
anti-IL18BP antibody BP-02 (antibody, human IgG1, V domains shown) VH: EVQLQQSGPELVKPGASVKIPCKASGYTFTDYNMDWVKQSHGKSLEWIGNINTNNGGTVYNQKFKGKATLTVDKSSSTAYMELRSLTSEDTAVYYCARSDTTVVASRYYAMDYWGQGTSVTVSL VL: DIVLTQSPASLAMSLGKRATISCRASESVSIIATNLIHWYQQKPGQPPKLLIYHASNLETGVPARFSGSGSRTDFTLTIDPVEKDDVAIYYCLQSRKIPPTFGGGTKLEIK	8.80
